Quick note: these are IC50 numbers for system: Cbl-b (Homo sapiens)
Sequence (Q13191 40-426): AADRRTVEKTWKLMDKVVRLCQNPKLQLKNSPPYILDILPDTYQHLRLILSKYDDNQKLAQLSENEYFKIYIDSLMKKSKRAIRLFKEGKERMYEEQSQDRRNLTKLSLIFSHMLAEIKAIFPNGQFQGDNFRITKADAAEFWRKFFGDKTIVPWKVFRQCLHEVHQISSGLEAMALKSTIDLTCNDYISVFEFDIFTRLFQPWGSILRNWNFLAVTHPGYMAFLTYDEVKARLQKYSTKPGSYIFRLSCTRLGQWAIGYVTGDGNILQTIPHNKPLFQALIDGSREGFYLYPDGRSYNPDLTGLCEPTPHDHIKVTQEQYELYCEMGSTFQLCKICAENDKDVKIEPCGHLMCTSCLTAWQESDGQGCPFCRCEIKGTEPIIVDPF

Inquiry: Can you look up IC50 on Cbl-b (Homo sapiens) for CC(C)[C@H]1CN(C)CCN1Cc1cc(C(F)(F)F)c2cn(-c3cccc(C4([C@H](F)c5nncn5C)COC4)c3)c(=O)n2c1 (single isomer, unassigned) ?
Reply text: < 100 nM

Inquiry: Ok, now COC[C@H]1CCCN1Cc1cc(C(F)(F)F)c2cn(-c3cccc(C4([C@@H](F)c5nncn5C)COC4)c3)c(=O)n2c1 (single isomer, unassigned)
Reply text: 101 to 500 nM

Inquiry: Ok, now Cn1cnnc1[C@@H](F)C1(c2cccc(-n3cc4c(C(F)(F)F)cc(CN5CCC5)cn4c3=O)c2)COC1 (single isomer, unassigned)
Reply text: 101 to 500 nM

Inquiry: Please do the same for Cn1cnnc1[C@H](F)[C@@](C)(F)c1cccc(-n2cc3c(C(F)(F)F)cc(CN4CCC5(CC5)C4)cn3c2=O)c1 as well.
Reply text: 501 to 10000 nM

Inquiry: Try the molecule Cn1cnnc1[C@@H](F)[C@](C)(F)c1cccc(-n2cc3c(C(F)(F)F)cc(CN4CCC5(CC5)C4)cn3c2=O)c1 (single isomer, unassigned)
Reply text: < 100 nM

Inquiry: // query: Cn1cnnc1[C@H](F)C1(c2cccc(-n3cc4c(C(F)(F)F)cc(CN5CCC5)cn4c3=O)c2)COC1 (single isomer, unassigned)
Reply text: < 100 nM

Inquiry: Also, Cn1cnnc1[C@H](F)C1(c2cccc(-n3cc4c(C(F)(F)F)cc(CN5CC6CC5C6)cn4c3=O)c2)COC1 (single isomer, unassigned) please.
Reply text: < 100 nM
